The reported measurements were obtained from patent US10392371B2.

system.tested: hTRPM8 (Homo sapiens, UniProt Q7Z2W7)
Construct: expressed in transfected cells
Sequence (Q7Z2W7 whole entry): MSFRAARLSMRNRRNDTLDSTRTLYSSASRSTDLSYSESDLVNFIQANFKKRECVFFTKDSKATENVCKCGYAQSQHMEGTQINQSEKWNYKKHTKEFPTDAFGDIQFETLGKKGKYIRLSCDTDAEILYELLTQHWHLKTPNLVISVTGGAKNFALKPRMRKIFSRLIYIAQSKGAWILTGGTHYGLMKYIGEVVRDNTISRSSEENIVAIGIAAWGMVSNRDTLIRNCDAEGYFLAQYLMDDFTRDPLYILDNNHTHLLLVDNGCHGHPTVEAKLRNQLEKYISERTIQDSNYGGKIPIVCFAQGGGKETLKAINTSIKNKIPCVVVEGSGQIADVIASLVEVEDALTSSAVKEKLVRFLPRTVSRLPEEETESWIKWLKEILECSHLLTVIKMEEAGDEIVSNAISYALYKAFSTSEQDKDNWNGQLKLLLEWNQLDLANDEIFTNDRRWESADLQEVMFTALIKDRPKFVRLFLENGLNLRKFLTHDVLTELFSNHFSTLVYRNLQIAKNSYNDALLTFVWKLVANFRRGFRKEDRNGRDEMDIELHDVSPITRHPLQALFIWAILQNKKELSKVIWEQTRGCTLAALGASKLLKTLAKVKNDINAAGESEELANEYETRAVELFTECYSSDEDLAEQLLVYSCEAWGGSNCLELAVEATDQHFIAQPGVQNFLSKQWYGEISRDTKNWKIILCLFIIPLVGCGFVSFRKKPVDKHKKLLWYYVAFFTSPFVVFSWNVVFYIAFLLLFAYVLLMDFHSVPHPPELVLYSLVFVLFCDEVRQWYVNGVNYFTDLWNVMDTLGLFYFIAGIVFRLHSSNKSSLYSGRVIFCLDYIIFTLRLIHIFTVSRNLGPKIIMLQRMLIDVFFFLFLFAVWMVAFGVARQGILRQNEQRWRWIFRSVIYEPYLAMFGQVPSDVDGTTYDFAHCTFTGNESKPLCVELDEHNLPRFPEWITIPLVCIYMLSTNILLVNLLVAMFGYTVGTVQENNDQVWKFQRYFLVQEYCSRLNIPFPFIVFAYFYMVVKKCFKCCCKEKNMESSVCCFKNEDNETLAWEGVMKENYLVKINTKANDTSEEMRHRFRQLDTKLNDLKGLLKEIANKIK
assay.overview: hTRPM8 agonist assay in mammalian cell line stably expressing hTRPM8
Format: cell-based
experimental.setup: EC50 of compound compared to that of WS-3, reported as a ratio
# EC50 WS-3 Ratio per record follows
property.name: EC50 WS-3 Ratio

INSERT INTO results (compound, system_tested, property_name, value_observed) VALUES
  ('Cc1ccc(OCC(=O)N(Cc2cccs2)c2cc[nH]n2)cc1C', 'hTRPM8 (Homo sapiens, UniProt Q7Z2W7)', 'EC50 WS-3 Ratio', 12169.3),
  ('CCc1ccc(OCC(=O)N(Cc2cccs2)c2cc[nH]n2)cc1', 'hTRPM8 (Homo sapiens, UniProt Q7Z2W7)', 'EC50 WS-3 Ratio', 1189444),
  ('Cc1cccc(OCC(=O)N(Cc2cccs2)c2cc[nH]n2)c1', 'hTRPM8 (Homo sapiens, UniProt Q7Z2W7)', 'EC50 WS-3 Ratio', 696.3),
  ('Cc1ccc(OCC(=O)N(Cc2cccs2)c2ccn[nH]2)cc1 [Comparative Compound 1, reference compound]', 'hTRPM8 (Homo sapiens, UniProt Q7Z2W7)', 'EC50 WS-3 Ratio', 28648),
  ('COc1ccc(OCC(=O)N(Cc2cccs2)c2cc[nH]n2)cc1', 'hTRPM8 (Homo sapiens, UniProt Q7Z2W7)', 'EC50 WS-3 Ratio', 1050.9),
  ('O=C(COc1ccc(F)cc1)N(Cc1cccs1)c1cc[nH]n1', 'hTRPM8 (Homo sapiens, UniProt Q7Z2W7)', 'EC50 WS-3 Ratio', 495.4);
